# Tested System: G3BP1 NTF2-like domain (1-139) F33W (human, UniProt Q13283 1-139, F33W)
# Sequence (Q13283 1-139 F33W): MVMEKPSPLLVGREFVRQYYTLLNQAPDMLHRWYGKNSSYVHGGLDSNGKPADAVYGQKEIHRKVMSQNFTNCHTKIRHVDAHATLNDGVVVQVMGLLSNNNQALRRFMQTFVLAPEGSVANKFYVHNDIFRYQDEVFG
# Assay Method Text: fluorescence polarisation
Where no end group is shown, it is not given here. Ahx = NCCCCCC(=O)O
Value Kind: Kd (µM)
Give bare numbers, in µM.

Read off the recorded Kd for {fluorescein-Ahx}-YNFIQDSMLDFE [Caprin1-derived dodecamer reporter peptide F*-YNFIQDSMLDFE]
79.3

Source of measurements: paper PMC9723946
